Parameter IC50, tested on PIK3CG (human), listed per item.

Some compounds with known IC50 results, for comparison:
Q: Param request: IC50 | system PIK3CG (human) | item CC1(C)CCc2nc(N3CCOCC3)sc2C(=O)N1
Result: ≤ 50 µM

Q: Param request: IC50 | system PIK3CG (human) | item CC1(C)CC(=O)c2sc(N3CCOC[C@@H]3Cc3cccc(-c4cccnc4)c3)nc2C1
Result: ≤ 50 µM

Q: Param request: IC50 | system PIK3CG (human) | item CC1(C)CNC(=S)c2sc(N3CCOCC3)nc2C1
Result: ≤ 50 µM

Q: Param request: IC50 | system PIK3CG (human) | item CC1(C)CC(=O)c2sc(N3CCOC[C@@H]3Cc3cccc(-c4ccc(C(N)=O)cc4)c3)nc2C1
Result: ≤ 50 µM

Q: Param request: IC50 | system PIK3CG (human) | item Cn1cc(CC2COCCN2c2nc3c(s2)C(=O)CC(C)(C)C3)c2ccccc21 (centres undefined)
Result: ≤ 50 µM

Q: Param request: IC50 | system PIK3CG (human) | item CC1(C)CC(=O)c2sc(N3CCOC[C@@H]3Cc3cccc(-c4cn(S(=O)(=O)c5ccccc5)c5ccccc45)c3)nc2C1
Result: ≤ 50 µM

New cases:
Q: Param request: IC50 | system PIK3CG (human) | item CC1(C)CC(=O)c2sc(N3CCOCC3Cc3cccc(Br)n3)nc2C1 (centres undefined)
Result: ≤ 50 µM
